target or test system: Epithelial discoidin domain-containing receptor 1 (Homo sapiens)
Sequence (Q08345 whole entry, the tested form may be a part): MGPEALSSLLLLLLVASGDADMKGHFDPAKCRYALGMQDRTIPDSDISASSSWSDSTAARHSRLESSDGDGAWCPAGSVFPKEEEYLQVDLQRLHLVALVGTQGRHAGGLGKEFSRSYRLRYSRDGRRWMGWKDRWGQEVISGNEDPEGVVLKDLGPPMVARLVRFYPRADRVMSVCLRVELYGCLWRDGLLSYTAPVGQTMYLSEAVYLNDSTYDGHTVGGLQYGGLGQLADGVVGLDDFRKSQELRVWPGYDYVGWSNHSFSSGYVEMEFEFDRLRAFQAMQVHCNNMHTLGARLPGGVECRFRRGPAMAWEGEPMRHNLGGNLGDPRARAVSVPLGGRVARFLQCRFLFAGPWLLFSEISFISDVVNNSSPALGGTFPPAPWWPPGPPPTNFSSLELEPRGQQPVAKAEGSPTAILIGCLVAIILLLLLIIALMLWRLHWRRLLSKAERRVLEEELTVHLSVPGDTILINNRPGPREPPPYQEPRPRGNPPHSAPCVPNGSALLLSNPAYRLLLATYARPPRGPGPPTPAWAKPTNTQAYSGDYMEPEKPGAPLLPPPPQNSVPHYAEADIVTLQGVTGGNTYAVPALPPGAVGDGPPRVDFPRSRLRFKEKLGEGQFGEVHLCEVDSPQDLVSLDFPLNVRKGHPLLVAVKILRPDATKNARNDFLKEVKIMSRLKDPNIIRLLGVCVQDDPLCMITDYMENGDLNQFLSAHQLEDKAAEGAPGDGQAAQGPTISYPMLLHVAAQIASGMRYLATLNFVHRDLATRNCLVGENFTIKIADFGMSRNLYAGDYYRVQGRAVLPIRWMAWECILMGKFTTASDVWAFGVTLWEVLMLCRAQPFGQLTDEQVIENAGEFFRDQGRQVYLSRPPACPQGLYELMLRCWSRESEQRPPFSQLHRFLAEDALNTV
observation type: pIC50
Quick note: pIC50 values are minus log10 of concentrations in mol/L.

[ask] Report pIC50 for Cc1ccc([C@H](C)NC(=O)Nc2ccccc2)cc1NC(=O)c1cnc2ccccn12 please.
[reply] 8.22

---

protocol description: Clearance in Balb/C mouse at 1 mg/kg, iv and 5 mg/kg, po
Type: ADME, organism-based
condition notes: in vivo
observation type: clearance (mL/min/kg)
API: value field is a number in mL/min/kg; no unit string.

[ask] Tell me the measured clearance of Cc1ccc([C@H](C)Nc2nc3cc(F)ccc3o2)cc1NC(=O)c1cnc2ccccn12 , please.
[reply] 16.6

[ask] Endpoint output: clearance of Cc1ccc(CNC(=O)Nc2cccc(F)c2)cc1NC(=O)c1cnc2ccccn12 . Value?
[reply] 7.65

[ask] Any idea what its clearance is? The compound is Cc1ccc([C@H](C)NC(=O)c2cccc(C(F)(F)F)c2)cc1NC(=O)c1cnc2ccccn12
[reply] 2.99

Hey, just so you know, these numbers are from ChEMBL document CHEMBL3608250.
